Recorded cytotoxicity at 40 µM values for a group of compounds are listed next.
# System: tumor endothelial cells (LL/2 lung cancer tumor)
# method: Lung LL2 ex vivo model of tumor angiogenesis
# Assay type: cell-based, mouse
# measurement-parameters: Mus musculus, Endothelial cell, 48 h, read-out: Cell death
Quick reminder: number only, in %, skip the unit.

Examples with answers:
# input For CCCCOc1ccc(S(=O)(=O)c2cnc3ccc(C(=O)OCC)cc3c2N2CCC(N3CCCN(C)CC3)CC2)cc1 [compound 211] , what is its reported cytotoxicity at 40 µM?
# output 100

# input Could you do the same for CCN(CC)CCC(C)Nc1c(S(=O)(=O)c2ccc(OC)cc2)cnc2cc(OC)c(OC)cc12 (stereo not shown) [compound 300] , please?
# output 20

# input Also, CCCCOc1ccc(S(=O)(=O)c2cnc3ccc(OC(F)(F)F)cc3c2N2CCCN(C)CC2)cc1 [compound 151] please.
# output 100

# input Then what about the compound CCCCOc1ccc(S(=O)(=O)c2cnc3ccc(C(=O)OCC)cc3c2N2CCCN(C)CC2)cc1 [compound 158] ?
# output 100

# input # repeat for CCCN(CCC)c1c(S(=O)(=O)c2ccc(OC)c(OC)c2)cnc2ccc(OC(F)(F)F)cc12 [compound 71]
# output 10

# input Same again, this time with CCCCOc1ccc(S(=O)(=O)c2cnc3ccc([S+](C)[O-])cc3c2N2CCCN(CCN3CCCCC3)CC2)cc1 (stereo not shown) [compound 209]
# output 60

API: the following record is the query input.
# input Looking for the measured cytotoxicity at 40 µM of COc1ccc(S(=O)(=O)c2cnc3cc(OC)c(OC)cc3c2N2CCC(c3ccc(CN4CCCC4)cc3)CC2)cc1 [compound 312] , can you help?
# output 100

The reported measurements were obtained from patent US11884647B2.
